Tested on: Danio rerio Tg(wt1b:EGFP) embryo, pronephros
Assay Summary: glomerular width (mean of left and right), fold change vs DMSO control; higher = wider glomerulus
Stated Conditions: 25 µM; exposure: 24-48 hpf
Counter-ions that a name gives are not always drawn.
Metric Name: glomerular width
Please reply with the value in numeric form only.

Answer briefly: glomerular width recorded on Danio rerio Tg(wt1b:EGFP) embryo, pronephros for CN(CCOc1ccc(NS(C)(=O)=O)cc1)CCc1ccc(NS(C)(=O)=O)cc1 [Dofetilide] 0.982

Supply glomerular width measured with Danio rerio Tg(wt1b:EGFP) embryo, pronephros for CC1(C)S[C@@H]2[C@H](NC(=O)[C@H](NC(=O)N3CCNC3=O)c3ccccc3)C(=O)N2[C@H]1C(=O)O [Azlocillin sodium salt] . 1.01

Enter measured glomerular width, system Danio rerio Tg(wt1b:EGFP) embryo, pronephros, for the compound shown: `NC[C@H]1O[C@H](O[C@H]2[C@H](O)[C@@H](O[C@H]3O[C@H](CO)[C@@H](O)[C@H](N)[C@H]3O)[C@H](N)C[C@@H]2N)[C@H](N)C[C@@H]1O` 0.94

Provide measured glomerular width on Danio rerio Tg(wt1b:EGFP) embryo, pronephros for `O=C(O)CN(CCN(CC(=O)O)CC(=O)O)CCN(CC(=O)O)CC(=O)O` please. 0.98
